Data credit: patent US8809343B2

The reader will find reported pEC50 values listed item by item below.
System: HIV-1 IIIB strain
Experiment: Anti-HIV activity: protection of HIV-infected MT-4 cells from virus-induced cell lesions
Type: cell-based
Conditions: Human immunodeficiency virus 1, IIIB, MT4, read-out: EC50 HIV-1(IIIB)
Worth noting: pEC50 values are minus log10 of concentrations stated in mol/L.

These solved cases illustrate the format of a correct answer.
[
  {
    "chemical string": "COc1ccc(Oc2nc(Nc3ccc(C#N)cc3)nc3ccccc23)cc1",
    "pEC50": 6.73
  },
  {
    "chemical string": "N#Cc1ccc(Nc2nc(Oc3ccccc3)c3ccccc3n2)cc1",
    "pEC50": 6.05
  },
  {
    "chemical string": "N#Cc1ccc(Nc2nc(Cl)cc(Oc3cccc4cccnc34)n2)cc1",
    "pEC50": 7.71
  },
  {
    "chemical string": "N#Cc1ccc(Nc2nccc(Oc3cccc4cccnc34)n2)cc1",
    "pEC50": 8.54
  },
  {
    "chemical string": "Cc1ccc(Oc2nc(Nc3ccc(C#N)cc3)nc3ccccc23)cc1",
    "pEC50": 7.38
  },
  {
    "chemical string": "COc1ccccc1Oc1nc(Nc2ccc(C#N)cc2)nc2ccccc12",
    "pEC50": 7.52
  },
  {
    "chemical string": "Cc1ccccc1Oc1nc(Nc2ccc(C#N)cc2)nc2ccccc12",
    "pEC50": 7.03
  },
  {
    "chemical string": "CNc1cc(Oc2cccc3cccnc23)nc(Nc2ccc(C#N)cc2)n1",
    "pEC50": 8.05
  },
  {
    "chemical string": "N#Cc1ccc(Nc2nc(Oc3ccc(Br)cc3)c3ccccc3n2)cc1",
    "pEC50": 6.58
  },
  {
    "chemical string": "Cc1cccc(Oc2nc(Nc3ccc(C#N)cc3)nc3ccccc23)c1",
    "pEC50": 6.20
  }
]

# get_value(readout='pEC50', item= Cc1cc(Br)cc(Br)c1Oc1nc(Nc2ccc(C#N)cc2)nc2ccccc12 )
7.75

What would you report for COc1cc(Oc2cccc3cccnc23)nc(Nc2ccc(C#N)cc2)n1 ?
7.89
